The values you see were collected from patent US11053236B2.

ENDPOINT_LABEL: melting point

{"MOLECULE": "CC(C)Cn1[se]c2ccccc2c1=O", "melting point": "114 to 116 °C"}

molecule O=c1c2ccccc2[se]n1C1CCCC1 [Compound 506l] , melting point observed: 119 to 120 °C

Sample `CC(C)(C)n1[se]c2ccccc2c1=O` ; melting point observed: 137 to 139 °C

Kindly note the recorded melting point for COc1ccccc1Cn1[se]c2ccccc2c1=O [Compound 506c] , which is 169 to 170 °C

Query `[N-]=[N+]=Nc1ccc(-n2[se]c3ccccc3c2=O)cc1` yields melting point of 169 to 170 °C

Kindly note the recorded melting point for `O=c1c2ccccc2[se]n1C12CC3CC(CC(C3)C1)C2` , which is 215 to 217 °C

---

Biological target: Mtb Ag85C (Mycobacterium tuberculosis)
Sequence (P9WQN9 46-340 limits assumed): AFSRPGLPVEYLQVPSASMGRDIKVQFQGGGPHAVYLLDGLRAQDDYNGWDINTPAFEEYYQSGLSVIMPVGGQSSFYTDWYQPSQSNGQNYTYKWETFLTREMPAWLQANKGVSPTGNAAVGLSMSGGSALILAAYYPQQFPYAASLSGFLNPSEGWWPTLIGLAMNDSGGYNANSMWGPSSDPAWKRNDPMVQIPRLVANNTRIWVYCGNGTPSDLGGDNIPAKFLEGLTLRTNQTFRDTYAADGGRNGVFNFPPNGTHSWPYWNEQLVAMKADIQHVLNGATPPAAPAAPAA
ENDPOINT_LABEL: IC50 (µM)
Response body: numeric value in µM, unit text excluded.

Field IC50 (Mtb Ag85C (Mycobacterium tuberculosis)), entry C=CCn1[se]c2ccccc2c1=O [Compound 506e, 2-allylbenzo[d][1,2]selenazol-3(2H)-one] : 8.8

---

Target: Mtb Ag85C (Mycobacterium tuberculosis)
Experiment: Fluorometric resorufin butyrate/trehalose assay of Mtb Ag85C activity
Assay type: biochemical
Conditions: 5 μM compound, 40 min of incubation, normalized to control without inhibitor; read-out: Percent of Mtb Ag85C activity remaining
ENDPOINT_LABEL: remaining activity at 5 µM
Reply with the number and its unit after it.

{"MOLECULE": "O=c1c2ccccc2[se]n1CC1CCCCC1 [Compound 506f]", "remaining activity at 5 µM": "30%"}
{"MOLECULE": "O=c1c2ccccc2[se]n1C1CCCC1 [Compound 506l]", "remaining activity at 5 µM": "40%"}
{"MOLECULE": "C=CCn1[se]c2ccccc2c1=O [Compound 506e, 2-allylbenzo[d][1,2]selenazol-3(2H)-one]", "remaining activity at 5 µM": "15%"}
{"MOLECULE": "O=C(CCCCC1SC[C@@H]2NC(=O)N[C@H]12)NCCOCCOCCOCCNC(=O)CCC(=O)N1Cc2ccccc2-c2nnn(-c3ccc(-n4[se]c5ccccc5c4=O)cc3)c2-c2ccccc21 (stereo partly shown)", "remaining activity at 5 µM": "61%"}
{"MOLECULE": "O=c1c2ccccc2[se]n1C1CCCCC1 [Compound 506m]", "remaining activity at 5 µM": "44%"}
{"MOLECULE": "O=c1c2ccccc2[se]n1-c1ccccc1 [Ebselen, 2-phenyl-1,2-benzisoselenazol-3(2H)-one, reference compound]", "remaining activity at 5 µM": "17%"}

// switching to the query molecule
Entry COc1ccccc1Cn1[se]c2ccccc2c1=O [Compound 506c] — recorded remaining activity at 5 µM = 36%

---

Tested on: Mtb H37Rv
Test: microbe, parasite or virus in culture
Assay type: cell-based
Details: Mycobacterium tuberculosis, MABA
ENDPOINT_LABEL: MIC (µg/mL)
Field format: number, assumed µg/mL, no unit text.

Worked cases, MIC given:
{"COMPOUND": "O=c1c2ccccc2[se]n1-c1ccccc1 [Ebselen, 2-phenyl-1,2-benzisoselenazol-3(2H)-one, reference compound]", "MIC (µg/mL)": 12.5}
{"COMPOUND": "C=CCn1[se]c2ccccc2c1=O [Compound 506e, 2-allylbenzo[d][1,2]selenazol-3(2H)-one]", "MIC (µg/mL)": 12.5}

Attention now turns to another entry.
For record COc1ccccc1Cn1[se]c2ccccc2c1=O [Compound 506c] the listed MIC is 12.5

---

Tested on: Mtb H37Rv
Assay: microbe, parasite or virus in culture
Format: cell-based
Conditions: Mycobacterium tuberculosis, MABA
Reported MIC values follow for various compounds

{"COMPOUND": "O=c1c2ccccc2[se]n1CC1CCCCC1 [Compound 506f]", "MIC": "≥ 50 µg/mL"}

Just so you know, measured MIC for `[N-]=[N+]=Nc1ccc(NC(=O)c2ccccc2[Se]C#Cc2ccccc2)cc1` came out at ≥ 50 µg/mL

Looking up O=C(CCCCC1SC[C@@H]2NC(=O)N[C@H]12)NCCOCCOCCOCCNC(=O)CCC(=O)N1Cc2ccccc2-c2nnn(-c3ccc(-n4[se]c5ccccc5c4=O)cc3)c2-c2ccccc21 (stereo partly drawn) , I see its MIC listed as ≥ 50 µg/mL
